SYSTEM_UNDER_TEST: SMARCA2 (Homo sapiens, UniProt P51531)
Sequence (P51531 whole entry): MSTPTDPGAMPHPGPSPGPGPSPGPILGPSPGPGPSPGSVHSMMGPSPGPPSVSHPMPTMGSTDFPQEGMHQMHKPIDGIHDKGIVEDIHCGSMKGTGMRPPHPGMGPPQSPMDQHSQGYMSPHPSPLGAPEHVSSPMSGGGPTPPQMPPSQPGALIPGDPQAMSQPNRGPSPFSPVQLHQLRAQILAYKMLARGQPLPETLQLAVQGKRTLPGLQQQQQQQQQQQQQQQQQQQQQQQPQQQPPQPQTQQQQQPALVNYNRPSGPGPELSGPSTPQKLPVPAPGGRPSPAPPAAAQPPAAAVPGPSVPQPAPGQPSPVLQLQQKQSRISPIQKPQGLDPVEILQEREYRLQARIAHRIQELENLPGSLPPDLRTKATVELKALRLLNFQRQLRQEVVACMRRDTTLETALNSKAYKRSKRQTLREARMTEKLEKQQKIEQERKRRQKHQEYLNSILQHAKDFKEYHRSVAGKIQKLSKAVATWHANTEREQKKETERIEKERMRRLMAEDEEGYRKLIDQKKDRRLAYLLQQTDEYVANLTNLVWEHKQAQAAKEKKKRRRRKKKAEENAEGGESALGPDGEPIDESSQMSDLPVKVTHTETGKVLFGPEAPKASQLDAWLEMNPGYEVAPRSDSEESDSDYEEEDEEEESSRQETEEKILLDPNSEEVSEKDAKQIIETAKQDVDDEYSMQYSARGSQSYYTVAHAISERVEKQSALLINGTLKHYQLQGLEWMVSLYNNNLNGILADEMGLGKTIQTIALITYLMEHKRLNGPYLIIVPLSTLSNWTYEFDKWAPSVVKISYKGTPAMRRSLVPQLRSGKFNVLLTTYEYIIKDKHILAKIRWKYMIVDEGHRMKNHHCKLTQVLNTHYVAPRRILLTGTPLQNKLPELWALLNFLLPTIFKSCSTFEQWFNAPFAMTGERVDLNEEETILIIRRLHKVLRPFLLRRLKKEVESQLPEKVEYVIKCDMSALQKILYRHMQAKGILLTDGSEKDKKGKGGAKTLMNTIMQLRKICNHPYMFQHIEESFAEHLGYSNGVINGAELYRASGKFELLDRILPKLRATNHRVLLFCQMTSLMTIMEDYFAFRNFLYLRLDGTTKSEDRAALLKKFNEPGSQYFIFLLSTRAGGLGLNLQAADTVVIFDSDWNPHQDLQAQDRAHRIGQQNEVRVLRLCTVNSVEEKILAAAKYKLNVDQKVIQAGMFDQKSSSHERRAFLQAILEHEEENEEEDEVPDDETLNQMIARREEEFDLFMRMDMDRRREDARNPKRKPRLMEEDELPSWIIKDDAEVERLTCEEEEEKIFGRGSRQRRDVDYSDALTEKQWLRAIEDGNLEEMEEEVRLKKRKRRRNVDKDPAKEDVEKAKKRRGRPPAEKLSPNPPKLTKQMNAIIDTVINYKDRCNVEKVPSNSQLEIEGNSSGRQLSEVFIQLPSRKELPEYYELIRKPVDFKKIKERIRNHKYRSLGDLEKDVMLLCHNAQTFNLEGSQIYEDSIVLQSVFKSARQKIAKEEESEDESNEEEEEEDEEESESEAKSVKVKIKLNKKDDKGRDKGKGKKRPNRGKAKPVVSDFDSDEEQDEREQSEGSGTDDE
EXPERIMENT_SUMMARY: SMARCA2 Western blot degradation in MV4-11 cells
Type: cell-based
Set-up: SMARCA2/SMARCA4 protein degradation selectivity in MV4-11 cells; endogenous in cells; host or cells: MV4-11
CONDITIONS: MV4-11 cells, 24 h; read-out: SMARCA2 MSD MV411 degradation 24 h: Mean external-Abs DC50
Listed here: items and their measured DC50.

MOLECULE	DC50
C#Cc1ccc(CNC(=O)[C@@H]2C[C@@H](O)CN2C(=O)[C@@H](NC(=O)N2CCN(C[C@H]3CC[C@@H](N4CCC(N5CCc6[nH]c7nnc(-c8ccccc8O)cc7c6[C@H]5C)CC4)CC3)CC2)C(C)(C)C)cc1 [I-193]	> 100 nM

Notebook: pull reported DC50 for SMARCA2 (Homo sapiens, UniProt P51531), entry Cc1ncsc1-c1ccc(CNC(=O)[C@@H]2C[C@@H](O)CN2C(=O)[C@@H](NC(=O)C2(F)CC2)C(C)(C)C)c(OCCCCN2CCC(c3cnc(N4CCN5c6cc(-c7ccccc7O)nnc6NC[C@H]5C4)nc3)CC2)c1 (single isomer, unassigned) [I-49]
< 1 nM

Notebook: pull reported DC50 for SMARCA2 (Homo sapiens, UniProt P51531), entry C#Cc1ccc(CNC(=O)[C@@H]2C[C@@H](O)CN2C(=O)[C@@H](NC(=O)N2CC3(CN(CC4CCN(c5cnc(N6CCc7[nH]c8nnc(-c9ccccc9O)cc8c7[C@@H]6C)nc5)CC4)C3)C2)C(C)(C)C)cc1 [I-165]
10 to 100 nM

Notebook: pull reported DC50 for SMARCA2 (Homo sapiens, UniProt P51531), entry C#Cc1ccc(CNC(=O)[C@@H]2C[C@@H](O)CN2C(=O)[C@@H](NC(=O)C2CCC3(CC2)CC(N2CCC(N4CCC(C(=O)N5CCN6c7cc(-c8ccccc8O)nnc7NC[C@H]6C5)CC4)CC2)C3)C(C)(C)C)cc1 (stereo partly shown) [I-89]
1 to 10 nM

====

SYSTEM_UNDER_TEST: UniProt:P51531
EXPERIMENT_SUMMARY: MSD SMARCA2 degradation in A549 cell line
Type: cell-based
CONDITIONS: A549, A549 cells, 24 h
Method: Example 10. MSD SMARCA2 Degradation in A549 Cell Line Cells were seeded into 96-well plates (A549 cells: 2×10^4 cells/well/100 ul media) and incubated overnight. […] The MSD plate was washed three times with 150 uL/well of TBST and 150 ul/well of 2× MSD reading buffer diluted from 4× (MSD, R92TC-2) with water was added. Lastly, the MSD instrument was read. […]
QUANTITY_NAME: Dmax

COMPOUND	RESULT
C#Cc1ccc([C@H](C)NC(=O)[C@@H]2C[C@@H](O)CN2C(=O)[C@@H](c2cc(OCCN3CCC(N4CCC(N5CCC(CN6CCN7c8cc(-c9ccccc9O)nnc8NC[C@H]7C6)CC5)CC4)CC3)no2)C(C)C)cc1 (single isomer, unassigned)	50 to 70%
C#Cc1ccc(CNC(=O)[C@@H]2C[C@@H](O)CN2C(=O)[C@@H](NC(=O)[C@H]2CCC3(CC2)C[C@H](N2CCC(c4cnc(N5CCN6c7cc(-c8cccc(Cl)c8O)nnc7NC[C@@H]6C5)nc4)CC2)C3)C(C)(C)C)cc1 (single isomer, unassigned)	> 90%
C#Cc1ccc(CNC(=O)[C@@H]2C[C@@H](O)CN2C(=O)[C@@H](NC(=O)CCCCCCCN2CCC(N3CC4(CC(N5CCN6c7cc(-c8ccccc8O)nnc7NC[C@H]6C5)C4)C3)CC2)C(C)(C)C)cc1	> 90%
C#Cc1ccc2c(c1)OCC[C@@H]2NC(=O)[C@@H]1C[C@@H](O)CN1C(=O)[C@@H](NC(=O)N1CC2(CC(N3CCC(c4cnc(N5CCc6[nH]c7nnc(-c8ccccc8O)cc7c6[C@H]5C)nc4)CC3)C2)C1)C(C)(C)C (single isomer, unassigned)	50 to 70%

Tell me the measured Dmax of C#Cc1ccc(CNC(=O)[C@@H]2C[C@@H](O)CN2C(=O)[C@@H](NC(=O)C2CCC3(CC2)CC(N2CCC(N4CCC[C@@H](C(=O)N5CCN6c7cc(-c8ccccc8O)nnc7NC[C@H]6C5)C4)CC2)C3)C(C)(C)C)cc1 (single isomer, unassigned) , please.
> 90%

Tell me the measured Dmax of Cc1ncsc1-c1ccc(CNC(=O)[C@@H]2C[C@@H](O)CN2C(=O)[C@@H](NC(=O)[C@H]2CC3(C2)C[C@H](N2CCC(c4ccnc(N5CCN6c7cc(-c8ccccc8O)nnc7NC[C@@H]6C5)n4)CC2)C3)C(C)(C)C)cc1 (single isomer, unassigned) , please.
70 to 90%

Tell me the measured Dmax of "C#Cc1ccc(CNC(=O)[C@@H]2C[C@@H](O)CN2C(=O)[C@@H](NC(=O)c2ccc(N3CCC(N4CCC(N5CCN6c7cc(-c8ccccc8O)nnc7NC[C@H]6C5)CC4)CC3)cc2)C(C)(C)C)cc1" , please.
> 90%

Tell me the measured Dmax of Cc1ncsc1-c1ccc(CNC(=O)[C@@H]2C[C@@H](O)CN2C(=O)C(c2cc(N3CCC4(CC3)CC(N3CCC(c5cnc(N6CCc7[nH]c8nnc(-c9ccccc9O)cc8c7[C@@H]6C)nc5)CC3)C4)no2)C(C)C)cc1 (single isomer, unassigned) , please.
70 to 90%

Tell me the measured Dmax of Cn1nccc1-c1ccc(CNC(=O)[C@@H]2C[C@@H](O)CN2C(=O)[C@@H](NC(=O)[C@H]2CC[C@H](c3ccc(-c4cnc(N5CCN6c7cc(-c8ccccc8O)nnc7NC[C@H]6C5)nc4)cc3)CC2)C(C)(C)C)cc1 (single isomer, unassigned) , please.
> 90%

Tell me the measured Dmax of "C#Cc1ccc(CNC(=O)[C@@H]2C[C@@H](O)CN2C(=O)[C@@H](NC(=O)N2CCN(C[C@H]3CC[C@@H](N4CCC(N5CCN6c7cc(-c8ccccc8O)nnc7NC[C@H]6C5)CC4)CC3)CC2)C(C)(C)C)cc1" , please.
70 to 90%

====

Listed here: items and their measured DC50.
SYSTEM_UNDER_TEST: UniProt:P51531
EXPERIMENT_SUMMARY: SMARCA2 Western blot degradation in MV4-11 cells
Format: cell-based
Set-up: SMARCA2/SMARCA4 protein degradation selectivity in MV4-11 cells; endogenous in cells; host or cells: MV4-11
CONDITIONS: MV4-11 cells, 24 h; read-out: SMARCA2 MSD MV411 degradation 24 h: Mean external-Abs DC50

Completed entries (count: 6):
MOLECULE	DC50
Cc1ncsc1-c1ccc(CNC(=O)[C@@H]2C[C@@H](O)CN2C(=O)[C@@H](NC(=O)N2CCC3(CC2)CC(N2CCC(c4cnc(N5CCN6c7cc(-c8ccccc8O)nnc7NC[C@H]6C5)nc4)CC2)C3)C(C)(C)C)cc1	> 100 nM
C[C@H](NC(=O)[C@@H]1C[C@@H](O)CN1C(=O)[C@@H](NC(=O)[C@H]1CCC2(CC1)C[C@H](N1CCC(c3cnc(N4CCN5c6cc(-c7ccccc7O)nnc6NC[C@H]5C4)nc3)CC1)C2)C(C)(C)C)c1ccc(-c2ccnn2C)cc1 (single isomer, unassigned) [I-22]	< 1 nM
C#Cc1ccc(CNC(=O)[C@@H]2C[C@@H](O)CN2C(=O)[C@H](NC(=O)[C@H]2CCC3(CC2)C[C@H](N2CCN(c4cnc(N5CCN6c7cc(-c8ccccc8O)nnc7NC[C@H]6C5)nc4)CC2)C3)C(C)(C)CCO)c(Cl)c1 (single isomer, unassigned)	> 100 nM
C#Cc1ccc(CNC(=O)[C@@H]2C[C@@H](O)CN2C(=O)[C@@H](NC(=O)[C@H]2CCC3(CC2)C[C@H](N2CCC(N4CC5(CC(N6CCN7c8cc(-c9ccccc9O)nnc8NC[C@H]7C6)C5)C4)CC2)C3)C(C)(C)C)c(Cl)c1 (single isomer, unassigned) [I-238]	10 to 100 nM
C#Cc1ccc(CNC(=O)[C@@H]2C[C@@H](O)CN2C(=O)[C@@H](NC(=O)[C@H]2CCC3(CC2)C[C@H](N2CCC(N4CCC(N5CCN6c7cc(-c8ccccc8O)nnc7NC[C@H]6C5)CC4)CC2)C3)C(C)(C)C)c(OC)c1 (single isomer, unassigned) [I-177]	10 to 100 nM
C#Cc1ccc(CNC(=O)[C@@H]2C[C@@H](O)CN2C(=O)[C@@H](NC(=O)[C@H]2CCC3(CC2)C[C@H](N2CCC(N4CC5(CC(N6CCN7c8cc(-c9ccccc9O)nnc8NC[C@H]7C6)C5)C4)CC2)C3)C(C)(C)C)c(Cl)c1 (single isomer, unassigned) [I-220]	10 to 100 nM

Tell me the measured DC50 of "CC#Cc1ccc(CNC(=O)[C@@H]2C[C@@H](O)CN2C(=O)[C@@H](NC(=O)N2CC3(CC(N4CCC(c5cnc(N6CCc7[nH]c8nnc(-c9ccccc9O)cc8c7[C@H]6C)nc5)CC4)C3)C2)C(C)(C)C)cc1" , please.
10 to 100 nM

Tell me the measured DC50 of Cc1ncsc1-c1ccc(CNC(=O)[C@@H]2C[C@@H](O)CN2C(=O)[C@@H](NC(=O)[C@H]2CCC3(CC2)C[C@H](N2CCC(c4cnc(N5CCN6c7cc(-c8ccccc8O)nnc7NC[C@H]6C5)nc4)CC2)C3)C(C)(C)C)cc1 (some centres unmarked) [I-71] , please.
1 to 10 nM
